Entry source: ChEMBL document CHEMBL1153520

- EXPERIMENTAL TARGET: 5-hydroxytryptamine receptor 4 (Homo sapiens, UniProt Q13639)
- Sequence (Q13639 whole entry): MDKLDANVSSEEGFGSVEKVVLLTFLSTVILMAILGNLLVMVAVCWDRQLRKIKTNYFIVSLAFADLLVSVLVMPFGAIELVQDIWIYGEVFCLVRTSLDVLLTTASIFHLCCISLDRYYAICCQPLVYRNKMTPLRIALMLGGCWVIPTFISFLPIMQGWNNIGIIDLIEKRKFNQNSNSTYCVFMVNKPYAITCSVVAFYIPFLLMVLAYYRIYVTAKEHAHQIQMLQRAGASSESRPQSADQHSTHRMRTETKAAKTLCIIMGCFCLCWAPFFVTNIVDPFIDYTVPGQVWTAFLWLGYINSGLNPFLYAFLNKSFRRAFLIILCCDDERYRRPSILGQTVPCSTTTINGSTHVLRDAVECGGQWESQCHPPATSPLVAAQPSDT
// reported log10 of Ki for each item listed
log10 Ki, nM

CC(C)n1c(=O)c(C(=O)N[C@H]2C[C@H]3CC[C@@H](C2)N3C[C@H](O)CN2CCN(S(C)(=O)=O)CC2)cc2ccccc21; 1.70
CCN1CCC(NC(=O)c2cc(Cl)c(N)cc2OC)CC1; 3.00
CC(C)n1c(=O)c(C(=O)N[C@H]2C[C@H]3CC[C@@H](C2)N3CC(O)CN2CCN(S(C)(=O)=O)CC2)cc2ccccc21 (mixture of isomers); 1.30
CC(C)n1c(=O)c(C(=O)N[C@H]2C[C@H]3CC[C@@H](C2)N3CCN(C)CCc2c[nH]c3ccccc23)cc2ccccc21; 1.60
CC(C)n1c(=O)c(C(=O)N[C@H]2C[C@H]3CC[C@@H](C2)N3CCCCCCCN2CCN(c3ccccc3)CC2)cc2ccccc21; 0.60
COc1cc(N)c(Cl)cc1C(=O)NCC1CCNCC1; 2.50
CC(C)n1c(=O)c(C(=O)N[C@H]2C[C@H]3CC[C@@H](C2)N3CCCCCCCN2CCN(S(C)(=O)=O)CC2)cc2ccccc21; 1.00
CC(C)n1nc(C(=O)NC2CCNCC2)c2ccccc21; 2.60
COc1cc(N)c(Cl)cc1C(=O)NC1CCN(CCCCCCCCN2C(=O)c3ccccc3C2=O)CC1; 1.60

Please examine the following record next.
# `CC(C)n1c(=O)c(C(=O)N[C@H]2C[C@H]3CC[C@@H](C2)N3CCCCCCCN2CCC[C@@H]2C(N)=O)cc2ccccc21` with 5-hydroxytryptamine receptor 4 (Homo sapiens, UniProt Q13639): log10 of Ki is 0.30
